Reported protein stability index values for a set of variants
B1: MYBL2 (parent)
chain: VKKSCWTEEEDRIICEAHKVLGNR

variants of: B1; assay: protein stability index of a GFP-peptide fusion (GPS, HEK-293T) (PSI 1-6); higher = more stable; conditions: c terminus: a fixed tail appended;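 also: lentivirally expressed fusions sorted by FACS into six bins by GFP to DsRed ratio, PSI derived from sequencing read proportions per bin multiplied by bin number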
measured_attribute: protein stability index

• I14Q = 4
• I14N = 3.28
• R12H = 3.55
• I13G = 4.41
• A17I = 2.09
• C15G = 4.39
• I13V = 4.55
• R24M = 2.86
• E16V = 2.31
• E16T = 2.72
• E10S = 2.96
• I14K = 4.53
• G22W = 2.28
• K19C = 3.3
• A17V = 2.37
• A17Y = 2.39
• C15K = 3.47
